Reference source: patent US20250101017A1

assayNotes: Solubility at 37° C. in buffer solutions with different pH (about 10 mg in 1 ml, 2 h and 24 h); filtrate concentration and pH, XRPD of remaining solid
Assay type: physicochemical
testSettings: buffer solution pH 4.5, 37 °C, pH 4.5, aqueous buffer, thermodynamic from solid, medium pH 4.5, 24 h; read-out: Solubility at 37° C. (mg/ml) 24 h
experimentalEndpoint: solubility at 24 h

# input molecule: CCc1nc2c(N)ncc(-c3ccc(N4CCC(N5CCN(CC)CC5)CC4)c(OC)c3)c2nc1NC1CCOCC1 [Free base Form A] ; wanted: its solubility at 24 h
> 10 mg/mL

* * *

assayNotes: Solubility of crystal form Form T in different solutions at 37° C. (about 60 mg in 2 mL, 2 h and 24 h; HPLC, pH, XRPD)
Type: physicochemical
testSettings: simulated gastric fluid, thermodynamic from solid; SGF, 37° C., 2 h
experimentalEndpoint: solubility at 2 h
Express your answer as a number followed by its unit.

# input compound: CCc1nc2c(N)ncc(-c3ccc(N4CCC(N5CCN(CC)CC5)CC4)c(OC)c3)c2nc1NC1CCOCC1 [Form T] ; wanted: its solubility at 2 h
27.6 mg/mL

* * *

assayNotes: Solubility at 37° C. in buffer solutions with different pH (about 10 mg in 1 ml, 2 h and 24 h); filtrate concentration and pH, XRPD of remaining solid
Assay type: physicochemical
testSettings: pH 3.0 buffer solution, 37 °C, pH 3, aqueous buffer, thermodynamic from solid, medium pH 3.0, 24 h; read-out: Solubility at 37° C. (mg/ml) 24 h
experimentalEndpoint: solubility at 24 h

# input compound: CCc1nc2c(N)ncc(-c3ccc(N4CCC(N5CCN(CC)CC5)CC4)c(OC)c3)c2nc1NC1CCOCC1 [Free base Form A] ; wanted: its solubility at 24 h
> 10 mg/mL

* * *

assayNotes: Solubility of crystal form Form T in different solutions at 37° C. (about 60 mg in 2 mL, 2 h and 24 h; HPLC, pH, XRPD)
Assay type: physicochemical
testSettings: pH 7.0 solution, aqueous buffer, thermodynamic from solid; pH 7.0, 37° C., 24 h
Protocol: Approximately 60 mg of the sample was weighed and added into a 4 mL bottle, and 2 mL of different solvents (water, pH 1.0, 3.0, 5.0, 7.0, 9.0, FaSSIF, FeSSIF, and SGF) were added and the mixtures were stirred at 37° C. for 24 h after adding magnetic stirring bar. Samples were taken at 2 and 24 h respectively. After filtration, the sample concentration in the filtrate was tested by HPLC, and the pH value of the filtrate and the XRPD of the remaining solid were also measured. […]
experimentalEndpoint: solubility at 24 h
Express your answer as a number followed by its unit.

# input compound: CCc1nc2c(N)ncc(-c3ccc(N4CCC(N5CCN(CC)CC5)CC4)c(OC)c3)c2nc1NC1CCOCC1 [Form T] ; wanted: its solubility at 24 h
60 µg/mL

* * *

assayNotes: Solubility at 37° C. in buffer solutions with different pH (about 10 mg in 1 ml, 2 h and 24 h); filtrate concentration and pH, XRPD of remaining solid
Assay type: physicochemical
testSettings: buffer solution pH 4.5, 37 °C, pH 4.5, aqueous buffer, thermodynamic from solid, medium pH 4.5, 24 h; read-out: Solubility at 37° C.
experimentalEndpoint: solubility at 24 h

# input compound: CCc1nc2c(N)ncc(-c3ccc(N4CCC(N5CCN(CC)CC5)CC4)c(OC)c3)c2nc1NC1CCOCC1 [Free base Form A] ; wanted: its solubility at 24 h
> 10 mg/mL
